Tested on: Phospho-ERK levels in KYSE-520 cells
Experiment: pERK AlphaScreen Protocol
Assay type: cell-based
Details: Homo sapiens, KYSE-520, 2 h, KYSE-520 cells, 2 hr compound incubation, phospho-ERK1/2 AlphaScreen SureFire; read-out: PERK Avg IC50
# note: exactly 300 nM is not below, so it is rule not met; use rule met for IC50 strictly under it

molecule: NC1(CO)CCN(c2cnc3c(-c4ccccc4Cl)n[nH]c3n2)CC1 [Example 61]
assignedClass: rule met
--
molecule: N[C@@H]1CCCC12CCN(c1cnc3c(-c4cc(Cl)cc(Cl)c4)n[nH]c3n1)CC2 [Example 45]
assignedClass: rule not met
--
molecule: NC1(CO)CCN(c2cnc3c(-c4ccnc(O)c4Cl)n[nH]c3n2)CC1 [Example 110]
assignedClass: rule not met
--
molecule: CNc1nccc(-c2n[nH]c3nc(N4CCC(C)(N)CC4)cnc23)c1Cl [Example 112]
assignedClass: rule met
--
molecule: COc1cccc(-c2n[nH]c3nc(N4CCC(C)(CN)CC4)cnc23)c1Cl [Example 27]
assignedClass: rule met
--
molecule: NC1(CO)CCN(c2cnc3c(-c4c(F)cccc4Cl)n[nH]c3n2)CC1 [Example 121]
assignedClass: rule not met
--
molecule: NC1(CO)CCN(c2cnc3c(-c4cccc(F)c4Cl)n[nH]c3n2)CC1 [Example 62]
assignedClass: rule not met

All values here come from patent US10280171B2.
